- system under test: human ETB receptor (Homo sapiens)
- Construct: expressed in transfected cells; host or cells: CHO-K1 cells, pRc-CMW (so in the source) expression vector, electroporation; membranes used
- Sequence (P24530 27-442): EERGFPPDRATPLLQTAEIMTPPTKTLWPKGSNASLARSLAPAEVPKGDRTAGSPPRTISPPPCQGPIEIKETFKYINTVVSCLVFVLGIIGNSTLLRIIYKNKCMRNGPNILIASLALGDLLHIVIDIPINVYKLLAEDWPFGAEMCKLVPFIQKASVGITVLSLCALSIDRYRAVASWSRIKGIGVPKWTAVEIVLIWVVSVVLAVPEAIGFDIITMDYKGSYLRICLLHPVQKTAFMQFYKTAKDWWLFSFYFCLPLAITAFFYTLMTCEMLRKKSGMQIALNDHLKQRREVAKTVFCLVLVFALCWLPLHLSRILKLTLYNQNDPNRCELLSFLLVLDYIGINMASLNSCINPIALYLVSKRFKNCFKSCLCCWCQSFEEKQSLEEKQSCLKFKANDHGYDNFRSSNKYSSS
- protocol summary: ERBA-B: [125I]-ET-1 binding, recombinant human ETB receptor expressed in CHO-K1 cells
- run conditions: human cloned ETB receptor, read-out: ERBA-B IC50, human cloned receptor data
- Source text: Count filters for radioactivity in gamma counter. The above process has also been modified by using human recombinant CHO-K1 cells. The tissue used for human ETB was recombinant human ETB receptor expressed in CHO-K1 cells (chinese hamster ovary cells). The gene for human ETB receptor was cloned and inserted into the pRc-CMW expression vector, then transfected into CHO-K1 cells by electroporation. […]
Please go through the items and note down their IC50.
Give just the number in nM; leave the unit off.

-- ask IC50 of COc1ccc(C2(O)OC(=O)C(c3ccc4c(c3)OCO4)=C2Cc2ccc(OC)c(Cl)c2)cc1 (centres unmarked) on human ETB receptor (Homo sapiens)?
-- reply 1400

-- ask Same for COc1ccc(C(=O)/C(Cc2ccccc2)=C(\C(=O)O)c2cc(OC)c3c(c2)OCO3)cc1C
-- reply 1530

-- ask Likewise for COc1ccc(C2(O)OC(=O)C(c3ccc4c(c3)OCO4)=C2Cc2cc(OC)c(OC)cc2OC)cc1 (centres unmarked) ?
-- reply 850

-- ask Another: COc1ccc(C2(O)OC(=O)C(c3cc(OC)cc(OC)c3)=C2Cc2cccc(Cl)c2)cc1 (centres unmarked)
-- reply 1200

-- ask Now consider COc1ccc(C2(O)OC(=O)C(c3cc(OC)cc(OC)c3)=C2Cc2ccc(OC)c(C)c2)cc1 (centres unmarked) and answer again.
-- reply 760

-- ask Try the molecule COc1ccc(C2(O)OC(=O)C(c3ccc4c(c3)OCO4)=C2CC2CC=CCC2)cc1 (centres unmarked)
-- reply 690

-- ask And COc1ccc(C2(O)OC(=O)C(c3ccc4c(c3)OCO4)=C2Cc2ccc(OCc3ccccc3)c(OC)c2)cc1 (centres unmarked) ?
-- reply 860

-- ask Try COc1cc(OC)cc(C2=C(Cc3ccc(OC(C)C)c(OC)c3)C(O)(c3ccc(OC)c(C)c3)OC2=O)c1 (centres unmarked) next.
-- reply 820
